The reader will find reported logP values listed item by item below.
# run.description: method code SF-AS, from DOI: 10.1002/ps.2780410210

sample.smiles	logP
Cc1ccc(C(=O)N(NC(=O)c2ccccc2)C(C)(C)C)cc1C	3.34
COc1ccccc1C(=O)N(NC(=O)c1ccccc1)C(C)(C)C	2.04
CC(C)(C)N(NC(=O)c1ccccc1)C(=O)c1cccc(Cl)c1	3.28
CC(C)(C)N(NC(=O)c1ccccc1)C(=O)c1cccc(C#N)c1	2.34
CC(C)(C)N(NC(=O)c1ccccc1)C(=O)c1ccc(Br)cc1	3.66

Kindly note the recorded logP for `CC(C)(C)N(NC(=O)c1ccccc1)C(=O)c1c(F)cccc1Cl` , which is 2.34

logP in this record for `CC(C)(C)N(NC(=O)c1ccccc1)C(=O)c1cc(F)c(F)c(F)c1F` : 3.44

logP reading for `COc1ccc(C(=O)N(NC(=O)c2ccccc2)C(C)(C)C)cc1` : 2.56

The recorded logP for entry `CC(C)(C)N(NC(=O)c1ccccc1)C(=O)c1ccccc1[N+](=O)[O-]` equals 2.27

Noted for `CC(C)(C)N(NC(=O)c1ccccc1)C(=O)c1ccc([N+](=O)[O-])cc1` : its logP reads 2.63

Lookup result for `Cc1cccc(C(=O)N(NC(=O)c2ccccc2)C(C)(C)C)c1` ; measured logP: 2.79

Lab note: `CC(C)(C)N(NC(=O)c1ccccc1)C(=O)c1ccccc1I` gave logP of 2.83

Lab note: `CC(C)(C)N(NC(=O)c1ccccc1)C(=O)c1c(F)c(F)c(F)c(F)c1F` gave logP of 3.25

Just so you know, measured logP for `CC(C)(C)N(NC(=O)c1ccccc1)C(=O)c1cccc(Cl)c1Cl` came out at 3.41

// `CC(C)(C)N(NC(=O)c1ccccc1)C(=O)c1ccc(Cl)cc1` : logP value = 3.42
